- System: CCRF-CEM leukemia
- PROCEDURE_SUMMARY: NCI-60 one-dose screen, 48 h
- REPORTED_CONDITIONS: 10 µM unless noted
Compounds without any hit were thinned out: in the full panel of roughly 83,000, 20% have a hit. Active and inactive are the calls of the source. Rule for the calls: active = growth percent below 10; inactive = the rest.
Response enum: active, inactive

Outcome? `Nc1ccc(N)c2c1C(=O)c1cccc([N+](=O)[O-])c1C2=O` inactive

Outcome? OC1CSSC1Cn1cnc2c(Nc3ccc(F)c(Cl)c3)ncnc21 (stereo not drawn) inactive

Outcome? `COc1cc2cc(Oc3ccc(NC(=O)Nc4ccc(F)c(C(F)(F)F)c4)cc3)c(C)nc2cc1OCCN1CCCCC1` active

* * *

- Test system: SW-620 colon
- PROCEDURE_SUMMARY: NCI-60 one-dose screen, 48 h
- REPORTED_CONDITIONS: 10 µM unless noted
This is part of a sample that, as a whole, favours compounds with a hit. Of some 83,000 tested, about 20% had one in any assay. The source made the active and inactive calls. Rule for the calls: active = growth percent below 10; inactive = the rest.
Response enum: true (1) (active), false (0) (inactive)

Outcome? `C=C(C[n+]1ccccc1)[C@@H]1CC[C@]2(C(=O)OC)CC[C@]3(C)[C@H](CC[C@@H]4[C@@]5(C)CCC(=O)C(C)(C)[C@@H]5CC[C@]43C)[C@@H]12` false (0)

Outcome? `Cc1nc2ccccc2c(/C=C/c2ccc(Br)cc2)c1C(=O)/C=C/c1ccccc1` true (1)

Outcome? `O=C1c2c(c3c4cccnc4[nH]c3c3ccc4ccccc4c23)C(=O)N1O` false (0)

Outcome? `O=C(Cn1cc(CSc2nc3ccccc3o2)nn1)Nc1ccc([N+](=O)[O-])cc1` false (0)

Outcome? `O=[N+]([O-])c1ccc(Oc2cccc3c(Oc4ccc([N+](=O)[O-])cc4[N+](=O)[O-])cccc23)c([N+](=O)[O-])c1` false (0)

Outcome? `Nc1nc(=O)n([C@H]2CC=C(CO)O2)cc1F` false (0)

Outcome? `CC(=O)Cc1nsc(NC(=O)c2cc(-c3cc(Cl)ccc3Cl)oc2C)n1` false (0)

Outcome? `COc1ccc(NC(=O)c2ccc(Cl)cc2Cl)cc1` false (0)

* * *

- System: NCI-H460 lung
- PROCEDURE_SUMMARY: NCI-60 one-dose screen, 48 h
- REPORTED_CONDITIONS: 10 µM unless noted
- Procedure: Growth inhibition of the NCI-H460 human Non-Small Cell Lung tumor cell line is measured as a screen for anti-cancer activity. Cells are grown in 96 well plates and exposed to the test compound for 48 hours. Compounds are tested at a single concentration, which is 10^-5 M for most compounds. The reported endpoint is percent growth (GI% or GIPRCNT), where numbers from 0 - 100% represent growth inhibition, and numbers from -100% - 0 represent cell death. […]
About 83,000 compounds went through this panel and 20% of them were active in at least one assay; those are over-represented in the sample as a whole. The source made the active and inactive calls. The calls were made as follows: active = growth percent below 10; inactive = the rest.
Response enum: active, inactive

Outcome? `COc1ccc(-n2c(=O)n(-c3ccc(-c4nc5ccc(F)cc5s4)cc3)c(=O)c3cccnc32)cc1` inactive

Outcome? `Cn1cc(-c2ccc3c(Nc4cccc(NC(=O)Nc5cccc(F)c5)c4)ncnc3c2)cn1` inactive

Outcome? `CN1CCN(Cc2ccc(NC(=O)c3cncc(C#Cc4c(N)ncc5cc(F)ccc45)c3)cc2C(F)(F)F)CC1` active

Outcome? CN(Cc1ccccc1)c1nc(Cl)c(C2CC(c3ccc(Cl)cc3)=NN2c2cc(Cl)cc(Cl)c2)s1 (centres undefined) inactive

Outcome? `COc1cc(/C=C2\CN(S(=O)(=O)c3ccc(C)cc3)C/C(=C\c3cc(CN4CCCC4)c(O)c(OC)c3)C2=O)cc(CN2CCCC2)c1O` active

Outcome? `O=C1c2ccccc2C(=O)c2cc(Cn3c[n+](Cc4ccc5ccccc5c4)c4ccccc43)ccc21` inactive

Outcome? `Cc1cc2c(c(C)n1)CN(C(=O)Nc1nc(-c3cncs3)ccc1N)C2` inactive

Outcome? `Oc1cccc2c1NCCC2` active

Outcome? `O=C(c1ccc(F)cc1)C1CCN(CCn2c(=O)[nH]c3ccccc3c2=O)CC1` inactive

Outcome? `CCCCCCCCCCCCCCCCCCOc1ccccc1CC(=O)OCC[N+]1(C)CCCCC1` inactive

Outcome? `O=[N+]([O-])c1ccc(N/N=C\c2cc(Cl)ccc2O)nc1` inactive

Outcome? `COc1cccc(C(=O)Nc2cccc(NC(=O)c3ccccn3)c2)c1` inactive

Outcome? `O=C(/C=C/c1ccc(Cl)cc1)c1ccc(Nc2ccnc3cc(Cl)ccc23)cc1` inactive

Outcome? `O=C(Nc1ncc(Cc2ccccc2)s1)c1ccc2c(c1)OCCO2` active

* * *

- System: NCI/ADR-RES ovarian
- PROCEDURE_SUMMARY: NCI-60 one-dose screen, 48 h
- REPORTED_CONDITIONS: 10 µM unless noted
This is part of a sample that, as a whole, favours compounds with a hit. Of some 83,000 tested, about 20% had one in any assay. The source made the active and inactive calls. How the source made its calls: active means growth percent below 10; inactive means the rest.
Response enum: yes (active), no (inactive)

Outcome? CC1(C)C2=C(C(=O)N1Cc1ccccc1)C(c1ccco1)N(C(=O)C1CCC1)CCN2 (stereo not given) no

Outcome? `N#CSCc1cc(Cl)c(CSC#N)cc1Cl` no

Outcome? `C[C@H]1c2ccccc2CN1CCCOc1cc2c(cc1OCC1CC1)C1(CCCC1)C(N)=N2` no

Outcome? `COc1cccc(-c2cc(-c3ccc(Nc4nc(Nc5ccc(Cl)cc5)nc(Nc5ccc(Cl)cc5)n4)cc3)nc(N)c2C#N)c1` no

Outcome? `CC(=O)O[C@H]1CC[C@@]2(C)C(=CC[C@@H]3[C@@H]2CC[C@]2(C)C(Cl)=C(c4nc5ccc(Cl)cn5c4NC(C)(C)C)C[C@@H]32)C1` no

Outcome? `CCNc1nc(-c2ccc(Cl)c(OC)c2)c(-c2ccnc(NCCNS(=O)(=O)c3ccc(Cl)cc3)n2)s1` no

Outcome? `CN1/C(=C/C=C/c2n(Cc3ccc4ccccc4c3)c(Cl)c(Cl)[n+]2Cc2ccc3ccccc3c2)Oc2ccccc21` no

Outcome? COc1cc2c(c(OC)c1OC)CCC(c1cccc(C(=O)Nc3ccc([N+](=O)[O-])cc3)c1)O2 (stereo not given) no

Outcome? `O=C(NCCN1CCOCC1)c1cncnc1Nc1ccc2c(ccn2Cc2ccccn2)c1` no

Outcome? `O=C(Nc1ccc(Cl)cc1)C1=NCCCCN1` no

Outcome? CN1C(=O)N(C)C2C1NN=c1s/c(=C\c3ccc(F)cc3)c(=O)n12 (stereo not given) no

Outcome? `COc1cc(C(=O)n2nc(NCCCc3ccccc3)c3cc(N)ccc32)cc(OC)c1OC` no

Outcome? `CCOC(=O)c1c(NC(=S)Nc2ccc([N+](=O)[O-])cc2)sc2c1CCCCC2` no

Outcome? `CO[C@H]1CC(c2ccc[nH]2)=N[C@]12O[C@@H](C)C[C@@H]1CCCCCCCc3ccc([nH]3)[C@H]12` no

Outcome? C#CCOC(=O)C(N)CSSCC(N)C(=O)O (stereo not given) no

Outcome? `Cc1nc2c(c(-c3ccccc3)n1)Cc1c(ccc3ccccc13)O2` no

Outcome? `O=C(COc1ccc(/C=C2\Oc3ccccc3C2=O)cc1)Nc1nccs1` no

Outcome? Cc1[nH]c(C2CC(c3ccc(C(F)(F)F)c(F)c3)=NN2C)c(C)c1C(=O)NCC(F)(F)F (stereo not given) no

Outcome? COc1ccc(C2=NN(C=O)C(c3ccc(Oc4nc5c(c(=O)n(C)c(=O)n5C)n4C)c(OC)c3)C2)cc1 (stereo not given) no

Outcome? `O=c1c2cccc3c(N4CCOCC4)ccc(c32)c2nc3ccccc3n12` no

Outcome? `CCCCCCCCNC(=O)[C@@H](N)CSCOC(C)=O` no

Outcome? `COc1ccc(-c2cc(-c3ccc(N(C)C)cc3)nc(NC(=O)c3cccnc3)n2)cc1` no

Outcome? `COc1ccc(CNc2c3ccccc3nc3ccccc23)cc1OC` no

Outcome? `Cn1cc(-c2ccc3c(Nc4cccc(NC(=O)Nc5cccc(F)c5)c4)ncnc3c2)cn1` no

Outcome? `CN(CCNc1ccc(C(=N)N)cc1)c1ccc(C(=N)N)cc1` no

Outcome? CC(C)=CCC[C@](C)(O)C1CC[C@]2(C)[C@@H]1CC[C@@H]1[C@@]3(C)CC/C(=N\OCCC#N)C(C)(C)[C@@H]3CC[C@]12C (stereo not given in full) no

Outcome? `C=C1C(=O)O[C@H]2[C@H]1CC/C(COC(=O)NCc1ccc(Cn3c(=O)sn(CCCC)c3=O)cc1)=C\CC[C@@]1(C)O[C@@H]21` no

Outcome? `O=C(Nc1ccccc1CNc1nc(Nc2ccc(OCCN3CCCC3)cc2)ncc1Cl)NC1CCCCC1` no

Outcome? N#CC1=C(N)Oc2c(ccc3cccnc23)C1c1ccccc1 (stereo not given) yes

Outcome? `COc1ccc(/C(C)=C(\c2ccc(Cl)cc2)c2ccc(OCCCN(C)C)cc2)cc1` no
